Test system: MS2 coat protein
protocol_summary: apparent KD of MS2 coat protein; higher = weaker reporter binding
measurement_parameters: Eterna round: R107; input ligand: theophylline 20 uM
Kindly state apparent KD of MS2 coat protein for each of the entries shown.
Respond with the bare value in nM.

I would be grateful if you could share the reported apparent KD of MS2 coat protein for CUAUAUAUAGCGGCCGCCACUUACUCAUGAGGUAACAACAUGAGGAUCACCCAUGUUUGAGGAUCAAGGACCGGGCUAUAUAUAG [AstrosSSTryB#4] . 33.5

I would be grateful if you could share the reported apparent KD of MS2 coat protein for ACACAUGAGGAUCACCCAUGUUGAGGAACACGAGGACCGGUACGGCCGCCACUCGACACAUGAGGAUCACCCAUGUGAUCACCCA [Same State Tryptophan A 2] . 129

I would be grateful if you could share the reported apparent KD of MS2 coat protein for AUUGUCAAGUCGGCCGCCACUUCUGCCAUGGCCACCAGUCGACAUGAGGAUCACCCAUGUCUCUUAAGGACCGGGACUUUCAAUU [theeternabot_sameState_MS2_Trp_B_6] . 16

I would be grateful if you could share the reported apparent KD of MS2 coat protein for ACUAGUUGUGCAGAUACCAGACAUGAGGAUCACCCAUGUUUGGGUUGUUCGCAACUUCCUGUCCCUUGGCAGCUGUACAUCUAGA [Omei Theo B Exc v5] . 46.9

I would be grateful if you could share the reported apparent KD of MS2 coat protein for CCGGUUAGGACGGCCGCCACUGUGGCUACGGUACAUGAGGAUCACCCAUGUUUGUGGUUGAUCUACAGGACCGGGUCCUGACACG [Eronri] . 1210

I would be grateful if you could share the reported apparent KD of MS2 coat protein for AUGACUUACGGGCGCCAUUUGUAAUAGGAAGGAGCGGCGAGAUAGCCAGGUAGGUCGCCUAUACAUGAGGAUCACCCAUGUCACC [Vegeorbe] . 103

====

Test system: MS2 coat protein
protocol_summary: apparent KD of MS2 coat protein; designed switch direction (-1 OFF switch, 1 ON switch): -1; higher = weaker reporter binding
measurement_parameters: input ligand: FMN 200 uM
value_type: apparent KD of MS2 coat protein
In your response, put the unit directly after the numeric value.

I would be grateful if you could share the reported apparent KD of MS2 coat protein for ACAUGAGGAUCACCCAUGUUUGGCUGGUCCUCUCCGGCUGUCGAGGAUAUAGUACGGUAUCCGCGCUAGAAGGUGAGGGCCGGC [Aenatbe] (Eterna round: R96, puzzle: Exclusion NG 3) . 16.4 nM

I would be grateful if you could share the reported apparent KD of MS2 coat protein for UACCUGAGGCUUUGCUUUAGGUAUACAUGAGGAUCACCCAUGUAGGAUAUGGUAGGCUUUGCUUACCAGAAGGACAUGUUAAUU [JL ENG3 1.09] (Eterna round: R96, puzzle: Exclusion NG 3) . 141 nM

I would be grateful if you could share the reported apparent KD of MS2 coat protein for AUCCUUAACAAGGAUAUCGGGCGGGUUUUUGUUUGAGAAGGUGUGACAUGAGGAUCACCCAUGUGGCGCGUGGG [-22, -20.4 kcal, A 22%] (Eterna round: R97, puzzle: Exclusion 6) . 285 nM

====

System: MS2 coat protein
protocol_summary: apparent KD of MS2 coat protein; designed switch direction (-1 OFF switch, 1 ON switch): -1; higher = weaker reporter binding
measurement_parameters: input ligand: FMN 200 uM
Kindly state apparent KD of MS2 coat protein for each of the entries shown.
Respond with the bare value in µM.

I would be grateful if you could share the reported apparent KD of MS2 coat protein for GUGUGUGAUGUAGGAUAUACGAGACAUGAGGAUCACCCAUGUGAGGGAAGGAGAAGGAGAAGAGAGUAGAAGGAUAGAGUGUGA [Default title] (Eterna round: R96, puzzle: Exclusion NG 2) . 0.133

I would be grateful if you could share the reported apparent KD of MS2 coat protein for GCUCGCGGGCAAGGAUAUCCUACGCUGUUCUGGCCCGUGUCUGUUACAUGAGGAUCACCCAUGUGGGAGAAGGUGCACCAGGGC [Design 46] (Eterna round: R96, puzzle: Exclusion NG 2) . 0.0197

I would be grateful if you could share the reported apparent KD of MS2 coat protein for UAAUAUCUGCAGGAUAUCGGUGGAGCACACGUAUGAGAAGGGCAGACAUGAGGAUCACCCAUGUAUAGGGUCCG [BotMod 3 - Jieux - Exclusion 6] (Eterna round: R97, puzzle: Exclusion 6) . 0.136

I would be grateful if you could share the reported apparent KD of MS2 coat protein for UGCGGGCUUUUGAGACCUCACAUGAGGAUCACCCAUGUGCUUGUCUUGUGGGUCGGUAGGUCGUUGGCUGACUGACG [Sensor-V1 #97] (Eterna round: R97, puzzle: Sensor, turn-off variant 1) . 0.0155

I would be grateful if you could share the reported apparent KD of MS2 coat protein for UCUUAGUCAGGAUAUACAUGAGGAUCACCCAUGUAAAAUUUUAAUUUAAUUUUAAGGUGUAGAAGGGACCACCU [Ex3 #18] (Eterna round: R97, puzzle: Exclusion 3) . 0.0192

I would be grateful if you could share the reported apparent KD of MS2 coat protein for AAAAGCCUAGGAUAUACUUGAGGAUCACCCAAGUAGGGUCCCAUGGACCCGUCCUCGUGUAGAAGGAGGAAAAG [Dierlabe] (Eterna round: R97, puzzle: Exclusion 3) . 0.156

I would be grateful if you could share the reported apparent KD of MS2 coat protein for AAAUUGGUAGAGGAUAUCGUACAGGAAACGAUGCGAGAAGGCUGCACAUGAGGAUCACCCAUGUUCAGUUGCGA [EX6 #41] (Eterna round: R97, puzzle: Exclusion 6) . 0.0179

I would be grateful if you could share the reported apparent KD of MS2 coat protein for UAACAAAACUGAGGAUAUCCAUAGCAAAACGUUUGAUCCUCUACAUGAGGAUCACCCAUGUAGCAGGAGAAGGCAGAAACAAAG [Orraenso] (Eterna round: R96, puzzle: Exclusion NG 2) . 0.0283

I would be grateful if you could share the reported apparent KD of MS2 coat protein for GAAUUAAUUAAUUAAUAAUACAUGAGGAUCACCCAUGUAGAUCCUACAUACAAGCUAAGUAGCUCGUCUUAUAAUUA [Stov1/2-A2] (Eterna round: R97, puzzle: Sensor, turn-off variant 1) . 0.313

I would be grateful if you could share the reported apparent KD of MS2 coat protein for CCUCGCAGGCAAGGAUAUCCUACAUUGUUCUGGCCCGGGCAUGCUACAUGAGGAUCACCCAUGUGGGAGAAGGUGCGCCACGGC [Design 31] (Eterna round: R96, puzzle: Exclusion NG 2) . 0.0483

I would be grateful if you could share the reported apparent KD of MS2 coat protein for AUAAAACAUGUAGGAUAUGCGUAGCGAAGCUAUGCAGAAGGACAUGAGGAUCACCCAUGUCUUUCCGUCUGCGAACAGACGGAA [Mat - Exclusion NG 1 - Mod of JL - D44] (Eterna round: R96, puzzle: Exclusion NG 1) . 0.0357

I would be grateful if you could share the reported apparent KD of MS2 coat protein for UAUUAGCAAGCGAGAUCCCACAUGAGGAUCACCCAUGUGCUCGUCUUAUAAAAGACUGUGACGAAAGUCACGGUCAC [Mat - Sensor, turn-off var - Eli Mod - D21] (Eterna round: R97, puzzle: Sensor, turn-off variant 1) . 0.0146

I would be grateful if you could share the reported apparent KD of MS2 coat protein for CUAGUGUAAGGAUAUGCCUGGCCGUGAGGCCAGAUUGAAUAGCAGAAGGUACAUGAGGAUCACCCAUGUACGGG [jl-ex4-4.62 ViennaUCT mod] (Eterna round: R97, puzzle: Exclusion 4) . 0.279

I would be grateful if you could share the reported apparent KD of MS2 coat protein for AGUUCCUUUGUGAGGAUAUCAAUGAUAUAACUGUAUGAGAAGGCACAUGAGGAUCACCCAUGUUUGUUGCUGCA [Eternabot (L1) Solution 78] (Eterna round: R97, puzzle: Brourd's mod of Exclusion 4) . 0.106

I would be grateful if you could share the reported apparent KD of MS2 coat protein for UACAUGAGGAUCACCCAUGUUUUGUCGUGUAUGGUAUUUAUCUAGGAUAUCAUUGUAUUUAUUUAUGAGAAGGAGAAUAUUAAU [JMF's solution 96] (Eterna round: R96, puzzle: Exclusion NG 3) . 0.0344

I would be grateful if you could share the reported apparent KD of MS2 coat protein for GCAGCAUAUGUAGGAUAUCUGCACGAUUAGUGCAGAGAAGGACAUGAGGAUCACCCAUGUAAUUAAGAUCAAUUAUUAAGCUGC [ENG1/4-A1] (Eterna round: R96, puzzle: Exclusion NG 1) . 0.0333

I would be grateful if you could share the reported apparent KD of MS2 coat protein for CUCAUGUGAGGAUAUGUGCUGAUCUGUACUGUGAUUAGAGAACAGAAGGUACAUGAGGAUCACCCAUGUACACG [Eternabot (L2) Solution 46] (Eterna round: R97, puzzle: Exclusion 4) . 0.354

I would be grateful if you could share the reported apparent KD of MS2 coat protein for GGCACACAUGAGGAUCACCCAUGUGAGGAUAUGCUGCGAUCGUCGAUAGACGAUAGCAGUAGAAGGCACAUGCC [Mat - Exclusion 1 - Eli Mod - D7] (Eterna round: R97, puzzle: Exclusion 1) . 0.0259
